Target Or Test System: human Tissue Factor (TF) (human, UniProt P13726 33-295)
Method: cell-based or functional assay
Measurement Name: % IL8 at 2.56 nM antibody (%)
Give bare numbers, in %.

{"Binder": "25A5 (antibody, human IgG1, V domains shown) VH: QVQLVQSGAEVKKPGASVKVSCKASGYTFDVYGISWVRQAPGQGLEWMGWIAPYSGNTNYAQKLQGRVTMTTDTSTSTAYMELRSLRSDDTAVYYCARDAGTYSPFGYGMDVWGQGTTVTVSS VL: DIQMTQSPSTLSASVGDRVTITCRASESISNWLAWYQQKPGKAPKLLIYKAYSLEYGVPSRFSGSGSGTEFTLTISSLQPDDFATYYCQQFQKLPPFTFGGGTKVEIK", "Measurement Name": "% IL8 at 2.56 nM antibody", "Observed Result": 70}
{"Binder": "25G9 (antibody, human IgG1, V domains shown) VH: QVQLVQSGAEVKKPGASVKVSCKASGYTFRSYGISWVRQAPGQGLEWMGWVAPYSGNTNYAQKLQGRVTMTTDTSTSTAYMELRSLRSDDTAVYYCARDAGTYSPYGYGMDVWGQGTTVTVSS VL: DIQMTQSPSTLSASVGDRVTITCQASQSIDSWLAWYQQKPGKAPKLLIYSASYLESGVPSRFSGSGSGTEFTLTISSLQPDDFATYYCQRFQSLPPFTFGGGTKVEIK", "Measurement Name": "% IL8 at 2.56 nM antibody", "Observed Result": 51}

Moving on to the next binder.
Per the record, 25A3 (antibody, human IgG1, V domains shown) VH: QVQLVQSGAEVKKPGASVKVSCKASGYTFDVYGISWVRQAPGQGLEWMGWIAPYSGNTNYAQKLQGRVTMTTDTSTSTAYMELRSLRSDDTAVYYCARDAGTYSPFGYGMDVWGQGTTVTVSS VL: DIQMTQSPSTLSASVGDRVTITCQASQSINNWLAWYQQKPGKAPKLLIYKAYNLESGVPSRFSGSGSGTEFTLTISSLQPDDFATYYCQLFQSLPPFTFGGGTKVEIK has % IL8 at 2.56 nM antibody of 47

Where do these numbers come from? They come from patent US20250361322A1.
